Here the recorded pIC50 is given for each entry.
molecular target: WT human SLACK (Homo sapiens); experiment: Whole-cell automated patch clamp (APC) in CHO-K1 cells stably expressing WT human SLACK; conditions: APC, CHO-K1 cells stably expressing WT human SLACK; averages (n ≥ 3)
Sequence (Q5JUK3 1-1235 isoform Q5JUK3-3): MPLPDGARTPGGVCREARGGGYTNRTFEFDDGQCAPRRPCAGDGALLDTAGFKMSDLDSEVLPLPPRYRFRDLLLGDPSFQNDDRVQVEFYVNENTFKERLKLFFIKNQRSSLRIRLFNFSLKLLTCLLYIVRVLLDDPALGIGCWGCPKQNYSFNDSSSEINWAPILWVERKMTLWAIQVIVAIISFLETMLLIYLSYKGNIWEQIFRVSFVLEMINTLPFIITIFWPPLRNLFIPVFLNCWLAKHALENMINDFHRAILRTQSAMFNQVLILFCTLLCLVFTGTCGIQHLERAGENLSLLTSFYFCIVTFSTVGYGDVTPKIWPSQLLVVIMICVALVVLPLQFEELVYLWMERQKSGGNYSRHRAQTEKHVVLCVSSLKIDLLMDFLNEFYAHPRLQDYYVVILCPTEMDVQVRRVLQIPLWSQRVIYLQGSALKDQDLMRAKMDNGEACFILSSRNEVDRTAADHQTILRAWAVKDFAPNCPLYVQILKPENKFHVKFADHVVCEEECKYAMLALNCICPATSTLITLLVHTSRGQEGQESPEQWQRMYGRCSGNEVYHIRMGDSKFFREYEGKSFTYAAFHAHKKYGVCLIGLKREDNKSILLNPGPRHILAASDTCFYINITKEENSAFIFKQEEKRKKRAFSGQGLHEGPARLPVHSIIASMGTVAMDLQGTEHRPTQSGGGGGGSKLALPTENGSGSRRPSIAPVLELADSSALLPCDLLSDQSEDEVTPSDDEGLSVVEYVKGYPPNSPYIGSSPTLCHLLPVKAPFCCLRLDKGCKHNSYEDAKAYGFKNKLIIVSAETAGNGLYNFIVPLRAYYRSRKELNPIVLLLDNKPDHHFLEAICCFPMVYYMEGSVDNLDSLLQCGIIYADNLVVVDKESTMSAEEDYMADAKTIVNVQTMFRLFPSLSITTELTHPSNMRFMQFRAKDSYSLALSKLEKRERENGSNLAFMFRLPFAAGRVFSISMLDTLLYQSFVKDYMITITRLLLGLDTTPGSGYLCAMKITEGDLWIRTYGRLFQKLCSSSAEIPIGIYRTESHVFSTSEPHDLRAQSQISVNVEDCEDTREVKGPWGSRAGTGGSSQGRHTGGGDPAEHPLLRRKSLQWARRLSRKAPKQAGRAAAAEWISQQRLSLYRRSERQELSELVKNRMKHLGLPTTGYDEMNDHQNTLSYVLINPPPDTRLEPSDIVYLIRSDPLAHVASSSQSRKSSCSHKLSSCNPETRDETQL
pIC50: −log10 of the molar value.
experimental readout: pIC50

compound: CC(C)(Oc1ccc(Cl)cc1)C(=O)Nc1cnc(Oc2c(F)cccc2Cl)nc1 [Analog 43]
experimental readout: pIC50
comparison symbol: =
readout value: 6.24

compound: CC(C)(Oc1ccc(Cl)cc1)C(=O)Nc1cnc(Oc2ccc(C(N)=O)cc2)nc1 [Analog 37]
experimental readout: pIC50
comparison symbol: <
readout value: 5.00

compound: CC(C)(Oc1ccc(Cl)cc1)C(=O)Nc1cnc(Oc2ccc(OC(F)(F)F)cc2)nc1 [Analog 32]
experimental readout: pIC50
comparison symbol: =
readout value: 5.72

compound: CC(C)(Oc1ccc(Cl)cc1)C(=O)Nc1cnc(Oc2ccc(F)cc2)nc1 [Analog 17]
experimental readout: pIC50
comparison symbol: =
readout value: 5.74

compound: CC(C)(Oc1ccc(Cl)cc1)C(=O)Nc1cnc(Oc2ccc(F)cc2F)nc1 [Analog 38]
experimental readout: pIC50
comparison symbol: =
readout value: 6.00

compound: CC(C)(Oc1ccc(Cl)cc1)C(=O)Nc1cnc(Oc2ccccc2Cl)nc1 [Analog 18]
experimental readout: pIC50
comparison symbol: =
readout value: 5.92

compound: Cc1cccc(Oc2ncc(NC(=O)C(C)(C)Oc3ccc(Cl)cc3)cn2)c1 [Analog 22]
experimental readout: pIC50
comparison symbol: =
readout value: 5.64

compound: CC(C)(Oc1ccc(Cl)cc1)C(=O)Nc1cnc(Oc2ccccc2F)cn1 [Analog 90]
experimental readout: pIC50
comparison symbol: <
readout value: 5.00

compound: CC(C)(Oc1ccc(Cl)cc1)C(=O)Nc1cnc(Oc2ccc(S(C)(=O)=O)cc2)nc1 [Analog 36]
experimental readout: pIC50
comparison symbol: =
readout value: 5.96

compound: CC(C)(Nc1ccc(Cl)cc1)C(=O)Nc1cnc(Oc2ccccc2F)nc1 [Analog 69]
experimental readout: pIC50
comparison symbol: =
readout value: 5.57

compound: O=C(Nc1cnc(Oc2ccccc2F)nc1)C(F)(F)Oc1ccc(Cl)cc1 [Analog 79]
experimental readout: pIC50
comparison symbol: =
readout value: 5.68

compound: CC(C)(Oc1ccc(Cl)cc1)C(=O)Nc1cnc(Oc2ccccc2)nc1 [Analog 15]
experimental readout: pIC50
comparison symbol: =
readout value: 5.77

compound: CC(C)(Sc1ccc(Cl)cc1)C(=O)Nc1cnc(Oc2ccccc2F)nc1 [Analog 68]
experimental readout: pIC50
comparison symbol: =
readout value: 5.39

compound: CC(C)(Oc1cccc(OC(F)(F)F)c1)C(=O)Nc1cnc(Oc2ccccc2F)nc1 [Analog 57]
experimental readout: pIC50
comparison symbol: =
readout value: 5.34

compound: CC(C)(Oc1ccc(C#N)cc1)C(=O)Nc1cnc(Oc2ccccc2F)nc1 [Analog 59]
experimental readout: pIC50
comparison symbol: <
readout value: 5.00

compound: CC(C)(Oc1ccc(C(F)(F)F)cc1)C(=O)Nc1cnc(Oc2ccccc2F)nc1 [Analog 55]
experimental readout: pIC50
comparison symbol: =
readout value: 5.55

compound: CC(C)(Oc1ccc(Cl)cc1)C(=O)Nc1cnc(Oc2cc(F)ccc2F)nc1 [Analog 39]
experimental readout: pIC50
comparison symbol: =
readout value: 5.89

compound: CC(C)(Oc1cccc(C(F)(F)F)c1)C(=O)Nc1cnc(Oc2ccccc2F)nc1 [Analog 54]
experimental readout: pIC50
comparison symbol: =
readout value: 5.43

compound: CC(C)(Oc1ccc(Cl)cc1)C(=O)Nc1cnc(Oc2ccccc2F)c(C#N)c1 [Analog 87]
experimental readout: pIC50
comparison symbol: =
readout value: 5.74

compound: CC(C)(Oc1ccc(Cl)cc1)C(=O)Nc1ccc(Oc2ccccc2F)cc1 [Analog 88]
experimental readout: pIC50
comparison symbol: =
readout value: 5.31

compound: CN(Cc1ccc(Cl)cc1)C(=O)Nc1cnc(Oc2ccccc2F)nc1 [Analog 82]
experimental readout: pIC50
comparison symbol: <
readout value: 5.00

compound: CC(C)(Oc1ccc(Cl)cc1)C(=O)Nc1cnc(Sc2ccccc2F)nc1 [Analog 63]
experimental readout: pIC50
comparison symbol: =
readout value: 6.05

compound: CC(C)(Oc1ccc(Cl)cc1)C(=O)Nc1cnc(Oc2ccc(C#N)cc2)nc1 [Analog 35]
experimental readout: pIC50
comparison symbol: =
readout value: 5.96

compound: CC(C)(Oc1ccc(Cl)cc1)C(=O)Nc1cnc(Oc2ccc(Cl)cc2)nc1 [Analog 20]
experimental readout: pIC50
comparison symbol: =
readout value: 5.92

compound: Cc1ccc(OC(C)(C)C(=O)Nc2cnc(Oc3ccccc3F)nc2)cc1 [Analog 52]
experimental readout: pIC50
comparison symbol: =
readout value: 5.15

compound: CC(C)(Oc1ccc(Cl)cc1)C(=O)Nc1cnc(Oc2cccc(Cl)c2)nc1 [Analog 19]
experimental readout: pIC50
comparison symbol: =
readout value: 5.82

compound: CC(C)(Oc1ccc(Cl)cc1)C(=O)Nc1cnc(Oc2ccccc2C#N)nc1 [Analog 33]
experimental readout: pIC50
comparison symbol: =
readout value: 6.03

compound: COc1cccc(Oc2ncc(NC(=O)C(C)(C)Oc3ccc(Cl)cc3)cn2)c1 [Analog 28]
experimental readout: pIC50
comparison symbol: =
readout value: 5.62

compound: CC(C)(Oc1ccc(Cl)cc1)C(=O)Nc1cnc(Oc2cc(F)cc(F)c2)nc1 [Analog 42]
experimental readout: pIC50
comparison symbol: =
readout value: 5.85

compound: O=C(CCc1ccc(Cl)cc1)Nc1cnc(Oc2ccccc2F)nc1 [Analog 74]
experimental readout: pIC50
comparison symbol: =
readout value: 5.29

compound: CN(c1ccc(C#N)cc1)c1ncc(NC(=O)C(C)(C)Oc2ccc(Cl)cc2)cn1 [Analog 66]
experimental readout: pIC50
comparison symbol: =
readout value: 6.04

compound: CC(C)(Oc1ccc(Cl)cc1)C(=O)Nc1cnc(Oc2ccccc2F)nc1 [Analog 10]
experimental readout: pIC50
comparison symbol: =
readout value: 5.85

compound: COc1ccccc1Oc1ncc(NC(=O)C(C)(C)Oc2ccc(Cl)cc2)cn1 [Analog 27]
experimental readout: pIC50
comparison symbol: =
readout value: 5.82

compound: Cc1ccccc1OC(C)(C)C(=O)Nc1cnc(Oc2ccccc2F)nc1 [Analog 50]
experimental readout: pIC50
comparison symbol: =
readout value: 5.54

compound: CC(C)(Oc1ccc(Cl)cc1)C(=O)Nc1cnc(Oc2ccccc2C(F)(F)F)nc1 [Analog 24]
experimental readout: pIC50
comparison symbol: =
readout value: 5.77

compound: CC(C)(Oc1ccc(OC(F)(F)F)cc1)C(=O)Nc1cnc(Oc2ccccc2F)nc1 [Analog 58]
experimental readout: pIC50
comparison symbol: <
readout value: 5.00
